# assayDetails: Multi-component pharmacokinetics in rat plasma after oral administration of RB, RPA or RB-RPA extracts (UPLC-HRMS, non-compartmental analysis)
# Assay type: in vivo, Sprague-Dawley rats
# measurementSetup: rat plasma, oral RB single extract 45 g-herb/kg, mean ± SD, n = 7
valueType: tmax (min)
Numbers only, in min.

CC1(C)CC[C@]23CO[C@@]4(C=C[C@@H]5[C@@]6(C)CC[C@H](O)[C@@](C)(CO)[C@@H]6CC[C@@]5(C)[C@]4(C)C[C@@H]2O)[C@@H]3C1 :: 62.4

Turning now to a further compound:
Query string: What value of measured tmax is listed for CC(=O)OC[C@H]1O[C@@H](O[C@H]2[C@@H](O)[C@@H](C)O[C@@H](O[C@H]3CC[C@@]4(C)[C@@H](CC[C@]5(C)[C@@H]4C=CC46OCC7(CCC(C)(C)C[C@H]74)[C@@H](O)C[C@]65C)[C@]3(C)CO)[C@@H]2O)[C@H](O)[C@@H](O)[C@@H]1O (some centres unmarked) ?
Result string: 27.6
